// data source = patent US20240317744A1

testedOn: pseudo-kinase domain (JH2, amino-acids 536-812) of human V617F mutant JAK2 (Homo sapiens, UniProt O60674, F794H/V617F/W659A/W777A)
Construct: pseudo-kinase domain (JH2, amino-acids 536-812 with 3 surface mutations W659A, W777A, F794H); His (C)
Sequence (O60674 536-812 V617F/W659A/W777A/F794H): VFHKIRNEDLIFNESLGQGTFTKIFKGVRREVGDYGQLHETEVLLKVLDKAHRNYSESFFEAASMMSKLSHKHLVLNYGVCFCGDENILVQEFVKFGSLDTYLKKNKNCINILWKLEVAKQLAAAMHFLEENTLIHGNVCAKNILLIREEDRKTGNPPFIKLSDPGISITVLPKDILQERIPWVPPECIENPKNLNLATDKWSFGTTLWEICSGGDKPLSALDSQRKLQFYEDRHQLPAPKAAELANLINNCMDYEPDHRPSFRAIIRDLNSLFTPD
assayRemarks: JAK2 LanthaScreen JH2-V617F Binding Assay
cond: JAK2 JH2-V617F 0.26 nM, 50 nM tracer, 1 hour at 25° C.; read-out: JH2 BIND V617F
observable: IC50

Recorded IC50, per entry:
[2H]C([2H])([2H])n1c(=O)n([C@@H]2CC[C@](C)(NC(=O)C3CC3)C2)c2cc(Nc3ccc4nn([C@H]5C[C@@H](O)C5)c(-c5cnn(C(F)(F)F)c5)c4n3)ncc21 ... ≤ 10 nM
[2H]C([2H])([2H])n1c(=O)n([C@@H]2CC[C@](C)(NC(C)=O)C2)c2cc(Nc3cc(C(C)(C)O)cc(-c4ncc(Cl)s4)n3)ncc21 ... ≤ 10 nM
COC(=O)Nc1cc(Nc2cc3c(cn2)n(C)c(=O)n3[C@H]2C[C@H](NC(=O)C3CC3)C2)cc(-c2cnn(C)c2)c1 ... 10 to 100 nM
COC(=O)N[C@@H]1CC[C@@H](n2c(=O)n(C)c3cnc(Nc4ccc(F)c(-c5ccc(C6CC6)cc5)n4)cc32)C1 ... 10 to 100 nM
COC(=O)N[C@@H]1CC[C@@H](n2c(=O)n(C)c3cnc(Nc4cc(C)nc(N5CCC(F)(F)C5)n4)cc32)C1 ... ≤ 10 nM
COC(=O)N[C@@H]1CC[C@@H](n2c(=O)n(C)c3cnc(Nc4cc(NC(=O)OC5CCC5)cc(-c5cnn(C)c5)c4)cc32)C1 ... ≤ 10 nM
[2H]C1(NC(=O)OC)CC[C@@H](n2c(=O)n(C([2H])([2H])[2H])c3cnc(Nc4ccc5c(n4)c(-c4cnn(C(F)(F)F)c4)nn5CC(C)(C)O)cc32)C1 (single isomer, unassigned) [Example 124] ... ≤ 10 nM
[2H]C([2H])([2H])n1c(=O)n([C@H]2CC[C@@](C)(NC(=O)C3CC3)CC2)c2cc(Nc3cc(C(=O)N4CCOCC4)c4nn(C)c(-c5cnn(C(F)(F)F)c5)c4n3)ncc21 ... ≤ 10 nM

Value lookup for IC50; key = [2H]C([2H])([2H])n1c(=O)n([C@@H]2CC[C@@H](NC(=O)OC)C2)c2cc(Nc3cc(CN4CC(C(F)F)C4)cc(-c4ncc(C(F)(F)F)s4)n3)ncc21
≤ 10 nM
